observable: melting point

Exam item: Need melting point of `CNC(=O)C1CCN(c2ccc3c(c2)COC2(CCN(C4CCC4)CC2)O3)CC1` , thanks.
Marked response: > 245 °C (dec.)

Exam item: Need melting point of `COCCNC(=O)c1ccc(-c2ccc3c(c2)COC2(CCN(C4CCC4)CC2)O3)cn1` , thanks.
Marked response: 113 to 114 °C

Exam item: Need melting point of `CO[C@H]1CCN(C(=O)c2ccc(-c3ccc4c(c3)CCC3(CCN(C5CCC5)CC3)O4)cc2)C1` , thanks.
Marked response: 70.2 to 71 °C

Exam item: Need melting point of `CN1CCN(c2ccc3c(c2)OC2(CCN(C4CCC4)CC2)O3)C1=O` , thanks.
Marked response: 186 to 187 °C

Exam item: Need melting point of `c1cc2c(cc1-c1cn[nH]c1)COC1(CCN(C3CCC3)CC1)O2` , thanks.
Marked response: 205 to 207 °C

Exam item: Need melting point of `c1cnc(Nc2ccc3c(c2)COC2(CCN(C4CCC4)CC2)O3)cn1` , thanks.
Marked response: 57 to 61 °C

Exam item: Need melting point of `CNC(=O)c1c(F)cc(-c2ccc3c(c2)COC2(CCN(C4CCC4)CC2)O3)cc1F` , thanks.
Marked response: 212.6 to 214.2 °C

Exam item: Need melting point of `c1cc2c(cc1N1CCOCC1)CCC1(CCN(C3CCC3)CC1)O2` , thanks.
Marked response: > 285 °C (dec.)

Exam item: Need melting point of `COCCN(C)C(=O)c1ccc(-c2ccc3c(c2)COC2(CCN(C4CCC4)CC2)O3)cc1Cl` , thanks.
Marked response: 105 to 107 °C

Exam item: Need melting point of CN1CC(COc2ccc3c(c2)CCC2(CCN(C4CCC4)CC2)O3)CC1=O (stereo not shown) , thanks.
Marked response: 234 to 236 °C

Exam item: Need melting point of `Cc1cc(-c2ccc3c(c2)COC2(CCN(C4CCC4)CC2)O3)ccc1C(=O)NCCO` , thanks.
Marked response: 168.5 to 169.9 °C

Exam item: Need melting point of `CC(C)C(=O)N1CCC(COc2ccc3c(c2)CCC2(CCN(C4CCC4)CC2)O3)CC1` , thanks.
Marked response: 130 to 132 °C

Exam item: Need melting point of `CC(=O)Nc1ccc(-c2ccc3c(c2)COC2(CCN(C4CCC4)CC2)O3)cn1` , thanks.
Marked response: 186 to 187 °C

Exam item: Need melting point of `O=c1cc(Oc2ccc3c(c2)CCC2(CCN(C4CCC4)CC2)O3)cc[nH]1` , thanks.
Marked response: 186 to 188 °C

* * *

Target: rat histamine H3 receptor (Rattus norvegicus, UniProt Q9QYN8)
Construct: encoding the entire 445-amino-acid rat histamine H3 receptor; expressed in transfected cells; membrane preparation
Sequence (Q9QYN8 whole entry): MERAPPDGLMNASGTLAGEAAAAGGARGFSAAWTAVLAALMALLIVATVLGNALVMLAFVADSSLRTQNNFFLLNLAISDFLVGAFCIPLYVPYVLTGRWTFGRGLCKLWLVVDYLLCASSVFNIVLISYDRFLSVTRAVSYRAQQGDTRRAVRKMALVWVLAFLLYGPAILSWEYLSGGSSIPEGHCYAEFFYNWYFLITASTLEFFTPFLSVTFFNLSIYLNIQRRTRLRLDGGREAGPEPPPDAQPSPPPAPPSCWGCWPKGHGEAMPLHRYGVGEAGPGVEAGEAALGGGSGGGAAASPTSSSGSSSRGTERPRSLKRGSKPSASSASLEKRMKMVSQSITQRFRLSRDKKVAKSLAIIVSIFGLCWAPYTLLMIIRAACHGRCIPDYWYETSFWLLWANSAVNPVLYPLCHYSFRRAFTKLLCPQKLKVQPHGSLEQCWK
Assay: Rat H3 radioligand binding ([3H]-N-alpha-methylhistamine, SPA)
Details: rat H3 binding, Table D; read-out: Rat H3 Ki
The following compounds are listed with their measured Ki values.

Worked examples, 3 compounds total:
CN(C)C(=O)c1cccc(COc2ccc3c(c2)CCC2(CCN(C4CCC4)CC2)O3)c1 = < 200 nM
O=c1ccc(-c2ccc3c(c2)COC2(CCN(C4COC4)CC2)O3)c[nH]1 = > 1000 nM
Cc1cc(C2CCN(c3ccc4c(c3)COC3(CCN(C5CCC5)CC3)O4)CC2)on1 = < 200 nM

Attention now shifts to the item below.
Exam item: Need Ki of `O=C(O)c1cc(-c2ccc3c(c2)COC2(CCN(C4CCC4)CC2)O3)cs1` , thanks.
Marked response: < 200 nM

* * *

observable: melting point

O=C(Cc1cccnc1)Nc1ccc2c(c1)COC1(CCN(C3CCC3)CC1)O2 [Example 333] = 167 to 169 °C
OC1(c2ccc3c(c2)COC2(CCN(C4CCC4)CC2)O3)CCC(F)(F)CC1 [Example 554] = 186 to 187 °C
CNS(=O)(=O)c1ccc(-c2ccc3c(c2)COC2(CCN(C4CCC4)CC2)O3)cc1Cl [Example 620] = 127 to 129 °C
CN(C)C(=O)c1cnc(COc2ccc3c(c2)CCC2(CCN(C4CCC4)CC2)O3)cn1 [Example 619] = 120 to 123 °C
O=C(NCCO)c1c(F)cc(-c2ccc3c(c2)CCC2(CCN(C4CCC4)CC2)O3)cc1F [Example 260] = 76.3 to 78.2 °C

Exam item: Need melting point of O=C(NCCO)c1ccc(-c2ccc3c(c2)COC2(CCN(C4CCC4)CC2)O3)cc1F [Example 163] , thanks.
Marked response: 166 to 168 °C

Exam item: Need melting point of O=S1(=O)CCC(Oc2ccc3c(c2)CCC2(CCN(C4CCC4)CC2)O3)C1 (stereo not drawn) [Example 490] , thanks.
Marked response: 252 to 254 °C

Exam item: Need melting point of O=C(N[C@@H]1CCOC1)c1ccc(-c2ccc3c(c2)COC2(CCN(C4CCC4)CC2)O3)cc1Cl [Example 605] , thanks.
Marked response: 189 to 191 °C

* * *

Target: human H3 receptor (Homo sapiens)
Construct: expressed in transfected cells
Sequence (Q9Y5N1 whole entry): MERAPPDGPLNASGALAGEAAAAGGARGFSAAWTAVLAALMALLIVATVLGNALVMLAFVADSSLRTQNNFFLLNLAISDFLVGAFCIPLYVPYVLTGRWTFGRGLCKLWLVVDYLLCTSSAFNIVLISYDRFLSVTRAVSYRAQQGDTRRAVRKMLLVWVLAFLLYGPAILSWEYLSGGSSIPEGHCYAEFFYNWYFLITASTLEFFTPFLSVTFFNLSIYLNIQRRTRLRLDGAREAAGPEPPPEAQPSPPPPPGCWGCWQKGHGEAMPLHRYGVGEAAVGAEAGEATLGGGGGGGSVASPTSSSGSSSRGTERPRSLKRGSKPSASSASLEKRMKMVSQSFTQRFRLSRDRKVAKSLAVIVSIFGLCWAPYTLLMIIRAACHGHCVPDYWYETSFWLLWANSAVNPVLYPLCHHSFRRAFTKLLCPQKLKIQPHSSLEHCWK
Assay: Human H3 radioligand binding ([3H]-N-alpha-methylhistamine, SPA)
Settings: Human H3 binding, Table B, Examples 136-362; read-out: hum H3 binding Ki
observable: Ki

Worked examples, 3 compounds total:
CNC(=O)c1cc(Oc2ccc3c(c2)CCC2(CCN(C4CCC4)CC2)O3)ccn1 = < 200 nM
CNC(=O)c1c(F)cc(-c2ccc3c(c2)COC2(CCN(C4CCC4)CC2)O3)cc1F = < 200 nM
CN(C)C(=O)c1ccccc1Nc1ccc2c(c1)COC1(CCN(C3CCC3)CC1)O2 = < 200 nM

Exam item: Need Ki of `c1cc(-c2ccc3c(c2)CCC2(CCN(C4CCC4)CC2)O3)ccc1C1=NCCO1` , thanks.
Marked response: < 200 nM

Exam item: Need Ki of `Cc1cccc(Oc2ccc3c(c2)CCC2(CCN(C4CCC4)CC2)O3)n1` , thanks.
Marked response: < 200 nM

Exam item: Need Ki of `O=C(c1ccc(-c2ccc3c(c2)COC2(CCN(C4CCC4)CC2)O3)cc1F)N1CC[C@H](O)C1` , thanks.
Marked response: < 200 nM

Exam item: Need Ki of `O=C(Nc1ccc2c(c1)COC1(CCN(C3CCC3)CC1)O2)c1ccnnc1` , thanks.
Marked response: < 200 nM

Exam item: Need Ki of `CNC(=O)c1c(F)cc(-c2ccc3c(c2)CCC2(CCN(C4CCC4)CC2)O3)cc1F` , thanks.
Marked response: < 200 nM

* * *

observable: melting point

Worked examples, 5 compounds total:
COc1ccc2nc(C)n(-c3ccc4c(c3)COC3(CCN(C5CCC5)CC3)O4)c(=O)c2c1 = 155 to 157 °C
Cc1c(-c2ccc3c(c2)COC2(CCN(C4CCC4)CC2)O3)ccc(=O)n1C = 59 to 61 °C
CCOC(=O)C1CC=C(c2ccc3c(c2)CCC2(CCN(C4CCC4)CC2)O3)CC1 (centres unmarked) = 137 to 139 °C
Cc1cc(=O)n(C(F)F)cc1-c1ccc2c(c1)COC1(CCN(C3CCC3)CC1)O2 = 119 to 121 °C
c1cc2c(cc1N1CCC(OCC3CC3)CC1)CCC1(CCN(C3CCC3)CC1)O2 = 280 to 283 °C

Exam item: Need melting point of `COc1ccc(-c2ccc3c(c2)COC2(CCN(CC4CCOCC4)CC2)O3)cn1` , thanks.
Marked response: 151 to 153 °C

Exam item: Need melting point of `O=C1OCCN1c1ccc2c(c1)COC1(CCN(C3CCC3)CC1)O2` , thanks.
Marked response: 165 to 168 °C

Exam item: Need melting point of `N#Cc1ccc(C(=O)Nc2ccc3c(c2)COC2(CCN(C4CCC4)CC2)O3)cc1` , thanks.
Marked response: 206 to 208 °C

* * *

observable: melting point

Worked examples, 8 compounds total:
N#Cc1ccc(Nc2ccc3c(c2)COC2(CCN(C4CCC4)CC2)O3)cc1 [Example 122] = 55 to 60 °C
O=C(OCc1ccccc1)N1CC=C(c2ccc3c(c2)CCC2(CCN(C4CCC4)CC2)O3)CC1 [Example 447] = 237 to 239 °C
N#Cc1ccc(C(=O)Nc2ccc3c(c2)CCC2(CCN(C4CCC4)CC2)O3)cc1 [Example 224] = 186 to 188 °C
c1cc2c(cc1O[C@@H]1CCOC1)CCC1(CCN(C3CCC3)CC1)O2 [Example 443] = 261 to 263 °C
c1cnc(-c2ccc3c(c2)COC2(CCN(C4CCC4)CC2)O3)cn1 [Example 71] = 114 to 115 °C
CNC(=O)CCc1ccc2c(c1)COC1(CCN(C3CCC3)CC1)O2 [Example 653] = 86 to 88 °C
CN(C)C(=O)C1CCN(c2ccc3c(c2)CCC2(CCN(C4CCC4)CC2)O3)CC1 [Example 436] = 140 to 142 °C
O=C(Nc1ccc2c(c1)COC1(CCN(C3CCC3)CC1)O2)c1ccncc1Cl [Example 221] = 192 to 193 °C

Exam item: Need melting point of O=C1CCCN1CCCOc1ccc2c(c1)CCC1(CCN(C3CCC3)CC1)O2 [Example 462] , thanks.
Marked response: 196 to 198 °C

Exam item: Need melting point of OC1(c2ccc3c(c2)COC2(CCN(C4CCC4)CC2)O3)COC1 [Example 505] , thanks.
Marked response: 180 to 183 °C

Exam item: Need melting point of O=c1cccnn1-c1ccc2c(c1)COC1(CCN(C3CCC3)CC1)O2 [Example 228] , thanks.
Marked response: 173 to 174 °C
